Tested on: T47D cell line
Experiment: MTT cytotoxicity assay
Type: cell-based
Conditions: 48h, 75 µM, Repeat No 1
The reader will find reported cell proliferation values listed item by item below.

molecule	cell proliferation / %
O=C(N/N=C/c1cc(Br)cc(Br)c1O)c1cccc(I)c1 [Compound 21]	69
O=C(N/N=C/c1cc(Cl)cc(I)c1O)c1cccc(I)c1 [Compound 20]	83
O=C(N/N=C/c1cc(Cl)cc(I)c1O)c1ccc(I)cc1 [Compound 27]	79
O=C(N/N=C/c1cc(I)cc(I)c1O)c1ccccc1I [Compound 14]	72

---

The reader will find reported cell proliferation values listed item by item below.
Tested on: A549 cell line
Assay: MTT cytotoxicity assay
Assay type: cell-based
Settings: A549, 48h, 75 µM, Repeat No 2
Description: Among all the newly synthesized compounds, four compounds designated as: 14, 20, 21 and 27 were selected for further testing of their cytotoxic properties at the doses of 10, 25, 50, 75 and 100 µM. […] The cell viability of tested compounds (14, 20, 21 and 27) was assessed by the MTT assay. […] The color absorbance was recorded at 570 nm using a BioTek model EPOCH ELISA plate reader. […] The absorbance values were in the range of linearity of the Lambert–Beer law.

compound	unit_descriptor	cell proliferation
O=C(N/N=C/c1cc(Br)cc(Br)c1O)c1cccc(I)c1 [Compound 21]	%	87
O=C(N/N=C/c1cc(I)cc(I)c1O)c1ccccc1I [Compound 14]	%	89
O=C(N/N=C/c1cc(Cl)cc(I)c1O)c1cccc(I)c1 [Compound 20]	%	95
O=C(N/N=C/c1cc(Cl)cc(I)c1O)c1ccc(I)cc1 [Compound 27]	%	87
